Tested on: P-gp
Assay comment: Effects of Rh2 epimers on oral pharmacokinetics of P-gp substrate digoxin in rats
Assay type: in vivo, rat
Test conditions: Sprague-Dawley (SD), rat, plasma, po, digoxin 0.25 mg/kg i.g., control (no Rh2), read-out: AUC 0–12 of digoxin
Metric name: AUC 0-t (µM·h)
Write the value in µM·h as a bare number.

Answer with the recorded AUC 0-t for the molecule listed here: C[C@H]1O[C@@H](O[C@H]2[C@@H](O)C[C@H](O[C@H]3[C@@H](O)C[C@H](O[C@H]4CC[C@@]5(C)[C@H](CC[C@@H]6[C@@H]5C[C@@H](O)[C@]5(C)[C@@H](C7=CC(=O)OC7)CC[C@]65O)C4)O[C@@H]3C)O[C@@H]2C)C[C@H](O)[C@@H]1O [Digoxin]
0.0154

Values compiled from paper PMC3329467.
